// values below are reported z-score
- assay details: calcein-AM signal in unstimulated myeloma cells – cell-based, calcein-AM fluorescence, 48 h, PK04 Diversity Set, profiling panel (AID 1166);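 also: cells grown under basal conditions without added stimulus; test concentration not given here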
- condition: RPMI8226 myeloma viability, higher = more signal
measure name: z-score

compound="O=C1OCCC/C=C\\[C@H]2OC34C=CCN(c5ccc6ccccc6c5)C(=O)[C@H]3N(CCO)C(=O)[C@@H]4C12 (some centres not stated)" value=-0.205
compound=CC[C@@H]1C=C(C(=O)O)[C@H](c2ccc(C#N)cc2)N1S(=O)(=O)c1ccc(C)cc1 value=-0.95
compound="CC1CC/C=C\\[C@H]2OC34C=CCN(Cc5ccccc5)C(=O)[C@H]3N(C(CO)C(C)C)C(=O)[C@@H]4C2C(=O)O1 (some centres not stated)" value=0.847
compound=COCCOC(=O)N1C(=O)[C@@]2(c3cc(C#CCNC(N)=O)ccc31)[C@H](C(N)=O)[C@H]1C(=O)O[C@H](c3ccccc3)[C@H](c3ccccc3)N1[C@@H]2c1ccccc1OCCO value=0.458
compound=CCOC(=O)C[C@H]1[C@H](OC(=O)c2ccc(C(=O)c3ccccc3)cc2)[C@@H](NC(=O)CC(C)C)c2cc(OCCCO)ccc2N1C(=O)c1ccccc1 value=-1.11
compound=COc1ccc([Si](C)(C)[C@@H]2[C@@H](CCO)O[C@]3(C(=O)N(Cc4ccccc4)c4ccc(N5C(=O)c6cccc7cccc5c67)cc43)[C@H]2C)cc1 value=-2.73
compound=CC1=C2[C@@H](CCc3ccccc3)OB(O)C[C@@H]2[C@@H]2C(=O)N(Cc3ccccc3)C(=O)[C@@H]2C1 value=-2.4
compound=CCOC(=O)C[C@H]1[C@H](OC(=O)Cc2ccc3c(c2)OCO3)[C@@H](NC(=O)c2ccc3ccccc3n2)c2cc(OCCCO)ccc2N1C(=O)c1ccccc1 value=-1.09
compound=CN(C)CCCCCCNC(=O)[C@@H]1C[C@@H]2C(=O)N3CCC[C@H]3C(=O)N2[C@@H]1c1cccc(OCCO)c1 value=-0.156
compound=CCOC(=O)C[C@H]1[C@H](OC(=O)c2cc3ccccc3oc2=O)[C@@H](NC(=O)c2ccc3ccccc3n2)c2cc(OCCCO)ccc2N1C(=O)Cc1ccc(OC)cc1 value=-0.946
compound=COC(=O)[C@@]1(Cc2ccc(OC)cc2)[C@H]2c3cc(C(=O)N4CCCC4)n(CCc4c[nH]c5ccc(O)cc45)c3C[C@H]2CN1C(=O)c1ccccc1 value=0.305
compound="C=CCC(OC(C)=O)[C@@H]1[C@@H](N(Cc2ccc(-c3ccccc3)cc2)C(=O)c2ccc(-c3ccccc3)cc2)c2cc(OCCCO)ccc2N1C(=O)c1ccc2ccccc2c1 (some centres not stated)" value=-0.685
compound=COC(=O)[C@@]1(Cc2ccccc2)[C@H]2c3cc(C(=O)N(C)C)n(Cc4ccc(C)o4)c3C[C@H]2CN1C(=O)c1ccccc1 value=-3.69
compound=CCC#CCN(Cc1ccccc1Br)[C@H](/C=C/C1CC1)[C@@H](O)Cc1ccccc1 value=-3.31
compound=C=CCOC(=O)[C@@]1(Cc2ccccc2)C[C@H]2CO[C@H](c3ccc(OC)cc3)N2C1=O value=-1.5
compound="C=CCC(OC(C)=O)[C@@H]1[C@@H](N(Cc2ccc(-c3cccc(C(F)(F)F)c3)o2)C(=O)c2ccc(-c3ccccc3)cc2)c2cc(OCCCO)ccc2N1C(=O)Cc1ccc2ccccc2c1 (some centres not stated)" value=-1.15
compound=CC#CCO[Si](C#Cc1ccccc1)(C(C)C)C(C)C value=-1.83
compound=COc1ccc([Si](C)(C)[C@H]2[C@H](CC(=O)N3CCC[C@H]3CO)O[C@@]3(C(=O)N(Cc4ccc(N5CCOC5=O)cc4)c4ccccc43)[C@@H]2C)cc1 value=-3.98
compound=C=CCNC(=O)[C@@H]1[C@H]2C(=O)O[C@H](c3ccccc3)[C@H](c3ccccc3)N2[C@H](c2ccc(OCCO)cc2)[C@@]12C(=O)N(C(=O)OCCOC)c1ccc(C#Cc3ccc(OC)cc3)cc12 value=-1.32
compound=COc1ccc(CCNC(=O)[C@@H]2c3ccccc3C(=O)N(C3CCCCC3)[C@H]2c2ccc(CO)cc2)cc1 value=-0.746
compound=COc1ccc([C@H]2OC[C@@H]3C[C@H](Cc4ccccc4)C(=O)N32)cc1 value=-0.598
compound=COC(=O)[C@@]1(Cc2ccc(OC)cc2)[C@H]2c3cc(C(=O)N(C)C)n(Cc4ccc(OC(F)(F)F)cc4)c3C[C@H]2CN1C(=O)c1ccccc1 value=-4.11
compound="Cc1cc(C)c(C(O)C2C=CC3C(=O)N(c4ccccc4)C(=O)C3N2Nc2ccccc2F)c(C)c1 (configuration not stated)" value=0.48
compound=COC(=O)C(CC#Cc1ccc2c(c1)[C@]1(C(=O)N2)[C@H](c2ccc(O)cc2)N2[C@H](c3ccccc3)[C@H](c3ccccc3)OC(=O)[C@H]2[C@@H]1C(=O)NC[C@H](O)c1ccccc1)C(=O)OC value=-1.83
compound=CCCC[C@@H](O)C1=C(COc2ccccc2)C[C@H]2C(=O)N(Cc3ccccc3)C(=O)[C@H]2[C@H]1CO value=0.0172
compound=C=C(COC)/C(=C/C[C@H](OC(=O)c1ccncc1)c1ccc(CO)o1)c1cnc2ccccc2c1 value=-0.366
compound="CCCCC[C@H]1OC[C@@]23C=C(Br)[C@@H](CC12)[C@@]1(CO1)C3=O (some centres not stated)" value=-1.5

###

// values below are reported composite z-score
- assay details: small molecules captured by biotinylated probe aFGF2 – biochemical, small-molecule microarray, fluorescence 635/667, stem cell growth factor project, primary screen (AID 1067);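 also: measures binding of biotinylated aFGF2 protein to printed compounds on slides; z-score merges feature fluorescence and signal-to-noise across triplicate slides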
- condition: higher = more signal
measure name: composite z-score

structure=Cc1ccc(S[C@]2(C(=O)NCC(F)(F)F)CC(=O)N(Cc3cc(C(F)(F)F)cc(C(F)(F)F)c3)[C@@H]2c2ccc(CO)cc2I)cc1 measure_name="composite z-score" value=-0.128
structure=CC1=C2[C@@H](CCc3ccccc3)OB(O)C[C@@H]2[C@@H]2C(=O)N(Cc3ccccc3)C(=O)[C@@H]2C1 measure_name="composite z-score" value=-0.155
structure=C=CCOC(=O)[C@@]1(Cc2ccccc2)C[C@H]2CO[C@H](c3ccc(OC)cc3)N2C1=O measure_name="composite z-score" value=-0.12
structure=C[N+](C)(C)CCCCCCNC(=O)[C@@H]1C[C@@H]2C(=O)N3CCC[C@H]3C(=O)N2[C@@H]1c1ccc(O)cc1 measure_name="composite z-score" value=-0.0788

###

- System: Plasmodium falciparum Sir2 (PF13_0152, Sir2A)
- assay details: Plasmodium falciparum Sir2A binding compounds – biochemical, small-molecule microarray, 635 nm fluorescence, primary screen (AID 1098);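 also: score merges spot fluorescence intensity with its signal-to-noise ratio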
- condition: fluorescence 635 nm, higher = more signal
// values below are reported composite z-score
measure name: composite z-score

compound="CC1CC/C=C\\[C@H]2OC34C=CCN(c5ccc(Cl)cc5)C(=O)[C@H]3N(C(C)CO)C(=O)[C@]4(C)C2C(=O)O1 (stereo partly drawn)" measure_name="composite z-score" value=0.365
compound=O[C@@H](Cc1ccccc1)[C@@H](/C=C/C1CC1)N(CC#Cc1ccccc1)Cc1ccccc1Br measure_name="composite z-score" value=-0.0214
compound=C=CC[C@@H](OC(=O)Nc1ccc(SC)cc1)c1ccc(O)c(F)c1 measure_name="composite z-score" value=0.522
compound=COCC(=C=CC[C@H](O)c1ccc(OCCO)cc1)CCO measure_name="composite z-score" value=1.09
compound="COc1cc2c(cc1O)C(c1cccs1)N(Cc1cc3c(cc1Br)OCO3)CC2 (stereo not drawn)" measure_name="composite z-score" value=1.5
compound=COC(=O)[C@@]1(Cc2ccc(OC)cc2)[C@H]2c3cc(C(=O)N(C)C)n(Cc4ccc(C)o4)c3C[C@H]2CN1C(=O)c1ccccc1 measure_name="composite z-score" value=1.34
compound=CCOC(=O)C[C@H]1[C@H](OC(=O)c2cc3ccccc3oc2=O)[C@@H](NC(=O)CC(C)C)c2cc(OCCCO)ccc2N1C(=O)c1ccc2ccccc2n1 measure_name="composite z-score" value=0.342
compound=C=CCOC(=O)[C@@]1(Cc2ccccc2)C[C@H]2CO[C@H](c3ccc(OC)cc3)N2C1=O measure_name="composite z-score" value=0.335
compound=CCOC(=O)C[C@H]1[C@H](OC(=O)c2ccc(C(=O)c3ccccc3)cc2)[C@@H](NC(=O)c2ccc(-c3ccccc3)cc2)c2cc(OCCCO)ccc2N1C(=O)Cc1ccc(OC)cc1 measure_name="composite z-score" value=0.0732
compound=COC(=O)[C@@]1(Cc2ccc(F)cc2)[C@H]2c3cc(C(=O)N(C)C)n(Cc4ccc(OC(F)(F)F)cc4)c3C[C@H]2CN1C(=O)c1ccccc1 measure_name="composite z-score" value=0.19
compound=COC(=O)[C@@]1(Cc2ccccc2)[C@H]2c3cc(C(=O)N4CCCC4)n(CCc4ccccn4)c3C[C@H]2CN1C(=O)c1ccccc1 measure_name="composite z-score" value=1.04
compound=CC(C)N1C(=O)c2ccccc2[C@@H](C(=O)NCCN2CCOCC2)[C@@H]1c1ccc(CO)cc1 measure_name="composite z-score" value=-0.256
compound=CCCNC(=O)[C@@]1(C)c2ccccc2C(=O)N(c2ccc(C)cn2)[C@H]1c1ccc(CO)cc1 measure_name="composite z-score" value=0.732
compound=COC(=O)[C@@]1(Cc2ccc(F)cc2)[C@H]2c3cc(C(=O)N4CCCC4)n(CCc4c[nH]c5ccccc45)c3C[C@H]2CN1C(=O)c1ccccc1 measure_name="composite z-score" value=0.539
compound=[N-]=[N+]=Nc1ccccc1C[C@]1(C(=O)NCCN2CCOCC2)COC(c2ccc(OCCCO)cc2)=N1 measure_name="composite z-score" value=1.01
compound=COc1cccc(C)c1NC(=O)O[C@H]1[C@H](OC(=O)Nc2ccc3c(c2)OCO3)[C@@H](OC(=O)Nc2ccc3c(c2)OCO3)[C@@H](OC)O[C@@H]1CO measure_name="composite z-score" value=0.264
compound=CCCCC=C[C@@H](NC(=O)OCc1ccccc1Cl)c1ccccc1 measure_name="composite z-score" value=0.732
compound=COCCOC(=O)N1C(=O)[C@@]2(c3cc(C#CCNC(N)=O)ccc31)[C@H](C(N)=O)[C@H]1C(=O)O[C@H](c3ccccc3)[C@H](c3ccccc3)N1[C@@H]2c1ccccc1OCCO measure_name="composite z-score" value=1.16

Data origin: PubChem BioAssay
